The reported measurements were obtained from the RNAGym collection of RNA variant scans (doi:10.1093/molbev/msab373).

B1: Azoarcus group I ribozyme (parent)
chain: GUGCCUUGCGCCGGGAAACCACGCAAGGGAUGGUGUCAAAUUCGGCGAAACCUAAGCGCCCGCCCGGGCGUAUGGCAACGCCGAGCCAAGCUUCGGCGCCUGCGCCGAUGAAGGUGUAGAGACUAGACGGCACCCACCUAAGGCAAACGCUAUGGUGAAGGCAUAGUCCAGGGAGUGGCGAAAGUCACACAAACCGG

Variants of: B1
Experiment: reverse-splicing fitness (ratio to wild type); higher = more active; in vitro selection; Mg2+ level not given
So I've got a bunch of variants here, and I need their reverse-splicing fitness values.
Give the figure by itself; no unit, no explanation.

Reported reverse-splicing fitness ( C82U A111C A120U A145G C150U U176C ) = 0.0107

Memo: C82U A111U A120U A145C C150U C169G U176C , reported reverse-splicing fitness: 0.00287

// A111G A120C A145U C169G U176G : reverse-splicing fitness value = 0.0045

Reported reverse-splicing fitness ( A120C A145G C169A ) = 0.0366

For reference, reported reverse-splicing fitness for C82G A120C A145C C150G C169G U176C stands at 0.00954

reverse-splicing fitness reading for C82A A120G A145C C150A C169G U176C : 0.0138

Entry C82U A111U A145U C150A C169A U176C ; reverse-splicing fitness = 0.00929

Summary for this variant, C82G A111G A145G U176A : reverse-splicing fitness is 0.25

reverse-splicing fitness reading for C82A A120U C150U C169G U176A : 0.00534

reverse-splicing fitness in this record for C82G A111C C150U C169A U176G : 0.00817

Lab note: C82G A111G A145C C150G C169U U176C gave reverse-splicing fitness of 0.013

// recorded reverse-splicing fitness for C82U A111G A120U A145G C150G C169U U176C : 0.00581

// recorded reverse-splicing fitness for C82G A111G A145U C150A C169G : 0.00845
